The entries below are paired with their reported pKd.
# ASSAY_TARGET: T1, full-length human 14-3-3ε fused to the C terminus of MBP (human, UniProt P62258 1-255)
# T1 chain: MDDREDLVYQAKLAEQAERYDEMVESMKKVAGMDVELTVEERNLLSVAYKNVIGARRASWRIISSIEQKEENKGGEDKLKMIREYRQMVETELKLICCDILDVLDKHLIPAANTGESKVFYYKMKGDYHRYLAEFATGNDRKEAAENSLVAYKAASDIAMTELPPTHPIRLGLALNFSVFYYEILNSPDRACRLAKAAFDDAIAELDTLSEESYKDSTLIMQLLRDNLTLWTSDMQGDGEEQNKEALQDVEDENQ
# MEASUREMENT_NOTES: FP
Non-standard residues stand in square brackets, D forms with d. No end group written: not given here. *: point of attachment. Biotin = O=C1N[C@H]2[C@H](CS[C@H]2CCCCC(=O)*)N1; pT = C[C@@H](OP(=O)(O)O)[C@H](N)C(=O)O; ttds = NCCCOCCOCCOCCCNC(=O)CCC(=O)*
For clarity, pKd is expressed as the negative log10 of concentration in mol/L.

BINDER | OBSERVED
{Biotin-ttds}-RLQRRRE[pT]QV [HPV18 E6 phospho-PBM peptide p18E6] | 4.00

**Query** Using the record for {Biotin-ttds}-RRVRKLPST[pT]L [RSK1 phospho-PBM peptide RSK1_-1P] , state its measured pKd.
**Result** 5.80

**Query** Using the record for {Biotin-ttds}-RRVRKLPS[pT]TL [RSK1 phospho-PBM peptide RSK1_-2P] , state its measured pKd.
**Result** 5.92
